Origin of values: ChEMBL document CHEMBL1201862

For each entry below, report its GI50 value.
# Test system: Malme-3M
# Experiment: NCI tumour cell line growth inhibition, 48 h
Calls of active or inactive are those of the source. No stated cut-off is given here; in the data, active = GI50 up to about 1.1 µM and inactive = higher.

Problem: Form field: reported GI50 of CC(C)[C@H](CCl)NC(=O)c1cccc(C(=O)N[C@H](CCl)C(C)C)n1 (stereo in doubt)
Solution: > 100 µM (inactive)

Problem: Form field: reported GI50 of "CN(C)Cc1ccc(C(C)(C)C)cc1-c1cc(C(C)(C)C)ccc1CN(C)C"
Solution: 31.3 µM (inactive)

Problem: Form field: reported GI50 of "Cc1c(CCO)c(O)n2c(nc3ccccc32)c1C#N"
Solution: > 100 µM (inactive)

Problem: Form field: reported GI50 of "CC12CC3CC(C1)CC(N=[N+]=[N-])(C3)C2"
Solution: > 100 µM (inactive)

Problem: Form field: reported GI50 of "CCCCCCCCCCCCOCCCOP(=O)([O-])OCC[N+](C)(C)C"
Solution: 64.7 µM (inactive)

---

# Tested on: ACHN
# Experiment: NCI tumour cell line growth inhibition, 48 h
Activity calls are given as the source filed them. Cut-off read from the data, not from the text of the source: active = GI50 up to about 1.1 µM and inactive = higher.
Field 'call' accepts active, inactive

Problem: What is the recorded call for this molecule in the test? "Cc1nc2ccccc2n1CCc1nc2ccccc2[nH]1"
Solution: inactive

Problem: What is the recorded call for this molecule in the test? "Cc1ccnn1CCc1ccc(Cl)cc1Cl"
Solution: inactive

Problem: What is the recorded call for this molecule in the test? "CCN(CC)c1ccc(C(=C2C=CC(=[N+](CC)CC)C=C2)c2ccc(N(CC)CC)cc2)cc1"
Solution: active

Problem: What is the recorded call for this molecule in the test? "O=S(=O)(O)c1ccc2cc(/N=N\c3cc(S(=O)(=O)O)c4cccnc4c3O)ccc2c1"
Solution: inactive

Problem: What is the recorded call for this molecule in the test? CC1=C(C(=O)O)N2C(=O)[C@@H](NC(=O)C(c3ccc(O)cc3)N3CSC(=S)N(C(C)C)C3)C2SC1 (stereo partly specified)
Solution: inactive

Problem: What is the recorded call for this molecule in the test? Cc1ccc(OCC2CO2)c(Br)c1 (stereo unspecified)
Solution: inactive

Problem: What is the recorded call for this molecule in the test? "COc1ccc(N(c2ccc(C#N)cc2)c2ccc(C#N)cc2)cc1"
Solution: inactive

Problem: What is the recorded call for this molecule in the test? "O=c1cc(N2CCCC2)[nH]c(=O)n1-c1ccccc1"
Solution: inactive

Problem: What is the recorded call for this molecule in the test? CC(=O)NC1C(OCc2ccccc2)OC(COC(=O)CCCCCCCCCCNc2ccc([N+](=O)[O-])c3[nH]c4ccccc4c(=O)c23)C(O)C1OC(C)C(=O)NC(C)C(=O)NC(CCC(N)=O)C(=O)OCc1ccccc1 (stereo unspecified)
Solution: inactive

Problem: What is the recorded call for this molecule in the test? "Clc1ccccc1C(n1ncc2ccccc21)n1ncc2ccccc21"
Solution: inactive

Problem: What is the recorded call for this molecule in the test? O=S(=O)(N/N=C1\CC2CCC1C2)c1ccccc1 (stereo unspecified)
Solution: inactive

Problem: What is the recorded call for this molecule in the test? "CN(C)N1C(=O)S/C(=C\c2ccc([N+](=O)[O-])cc2)C1=O"
Solution: inactive

Problem: What is the recorded call for this molecule in the test? "Oc1ccc(/C=N/c2ccccc2O)cc1"
Solution: inactive

Problem: What is the recorded call for this molecule in the test? "O=C(CCOS(=O)(=O)CF)N1CCN(C(=O)CCOS(=O)(=O)CF)CC1"
Solution: inactive

Problem: What is the recorded call for this molecule in the test? "CCCNC(=O)NNC(=O)c1c[nH]c2nc(C)ccc2c1=O"
Solution: inactive

Problem: What is the recorded call for this molecule in the test? "O=C(O)c1nc(-c2ccc(Cl)c(Cl)c2)nc2ccc(Cl)cc12"
Solution: inactive

Problem: What is the recorded call for this molecule in the test? CCOP(C)(=O)C(Cc1c[nH]c2ccccc12)C(=O)O (stereo unspecified)
Solution: inactive

Problem: What is the recorded call for this molecule in the test? "Oc1c(N2CCOCC2)cc(-c2cc(N3CCOCC3)c(O)c3ccccc23)c2ccccc12"
Solution: inactive

Problem: What is the recorded call for this molecule in the test? "O=C1CN=C(C[N+](=O)[O-])c2ccccc21"
Solution: inactive

Problem: What is the recorded call for this molecule in the test? "O=C(Nc1ccc(S(=O)(=O)Nc2ncccn2)cc1)c1c2ccccc2nc2ccccc12"
Solution: inactive

Problem: What is the recorded call for this molecule in the test? O=[N+]([O-])c1ccc(C(Cl)C(Cl)c2ccc(C(Cl)C(Cl)c3ccc([N+](=O)[O-])cc3[N+](=O)[O-])cc2)c([N+](=O)[O-])c1 (stereo unspecified)
Solution: inactive
